Measured values drawn from patent US11174250B2 for this set.

molecular target: WDR5 protein (Homo sapiens (Human), UniProt P61964); assay: Surface Plasmon Resonance (SPR) assay; assay type: binding; conditions: SPR, Table 1; read-out: WDR5 binding affinity (KD)
ENDPOINT_NAME: pKd
Scale explanation: pKd corresponds to minus log10 of a concentration expressed in moles per litre.

> print(dat)
                                   compound                       experimental.target  recorded.result
1  Cc1cc(C(=O)Nc2cc(-c3cc(CN4CCOCC4)ccc3F)ccc2N2CCCN(C)CC2)cc(C)c1F [Example 92]  WDR5 protein (Homo sapiens (Human), UniProt P61964)             6.40

pKd for C[C@@H]1CN(c2ccc(-c3cc(CN4CCOCC4)cnc3F)cc2NC(=O)c2c[nH]c(=O)cc2C(F)(F)F)C[C@H](C)N1C [Example 60] ?
8.15

pKd for CN1CCN(c2ccc(-c3cc(CN4CCC(F)CC4)ccc3F)cc2NC(=O)c2c[nH]c(=O)cc2C(F)(F)F)CC1 [Example 73] ?
8.38

pKd for CN1CCN(c2ccc(-c3cc(CN4CCOCC4)ccc3F)c(F)c2NC(=O)c2c[nH]c(=O)cc2C(F)(F)F)CC1 [Example 99] ?
7.85
